Origin of the recorded values: PubChem BioAssay (NCI)

# Tested on: SF-268 CNS
# protocol summary: NCI tumour cell line growth inhibition, 48 h

| molecule | TGI |
| --- | --- |
| COc1ccc2c(c1)CC[C@@H]1[C@@H]2CC[C@]2(C)C(c3ccsc3)=C(/C=C/C(=O)c3ccccc3)C[C@@H]12 | > 100 µM |
| Cc1ccc(-c2c(C#N)c(N)[nH]c(=S)c2C#N)cc1 | > 100 µM |
| O=C(/C=C\c1ccc(-c2ccccc2)cc1)c1cccs1 | > 75 µM |
| C=C(C)[C@@H]1C/C=C(\COC(=O)[C@H](OC(C)=O)C(NC(=O)c2ccccc2)c2ccccc2)CC[C@H]2O[C@]2(C)CC/C=C(\C)CC1 (some centres not stated) | > 50 µM |
| CC1=C(C#N)C2C(=C(C)N1)C(N)=Nc1ccccc12 (configuration not stated) | > 100 µM |
| CCN(CC)c1ccc2cc(C(=O)Nc3ccccc3OC)c(=N)oc2c1 | > 100 µM |
| O=C(O)CCC(=O)C(=O)O | > 100 µM |
| [N-]=[N+]=NC1=CC(=O)c2cccc3cccc1c23 | > 100 µM |
| CC1(C)C[C@H]2[C@H](O)C(CO)=C3C(=O)[C@@H](O)[C@]3(C)[C@H]2C1 | > 100 µM |
| CNc1cc(N)ccc1C(=O)N1CCC[C@H]1CO | > 100 µM |
| CNc1ccc(S(=O)Nc2ccc(OC)cc2)cc1 (configuration not stated) | > 100 µM |
| C=CCCC(=O)N1CCC(C(=O)OCC)C1=O (configuration not stated) | > 100 µM |

---

Each item that follows carries a reported TGI.
# Tested on: MOLT-4 leukemia
# protocol summary: NCI tumour cell line growth inhibition, 48 h

| compound | TGI |
| --- | --- |
| CC(=O)/C=C/CCC(=O)/C=C/C(=O)OC(CCC(=O)/C=C/C(=O)O)CC(C)=O (stereo unspecified) | > 100 µM |
| Cn1cc(C2=C(c3cn(C)c4cc(C(=O)O)ccc34)C(=O)NC2=O)c2ccccc21 | > 25 µM |
| CC1OC(=O)C2CC3CCCCC3C(/C=C/C3CCCC(C)N3C)C12 (stereo unspecified) | > 100 µM |
| NC(=O)c1ncn2c1NCC1OC2C(O)C1O (stereo unspecified) | > 100 µM |
| COC(=O)C1CCC(=O)C(Sc2ccccc2)C1 (stereo unspecified) | > 100 µM |
| CC1(C)CC2=C(SC3C=CC=CC3N2)C(=O)C1C(=O)C(N)=O (stereo unspecified) | > 100 µM |

---

# Tested on: MDA-MB-435
Outcome codes: active, inactive

| compound | assigned category |
| --- | --- |
| C=C(C)[C@@H]1CC[C@]2(COC(C)=O)CC[C@]3(C)[C@H](CC[C@@H]4[C@@]5(C)CCCN(C(C)=O)C(C)(C)[C@@H]5CC[C@]43C)[C@@H]12 | inactive |
| O=[N+]([O-])c1cccc2nc3ccccc3c(NCCO)c12 | active |
| CC(=O)OCC1OC(OC2CCCC[Si](c3ccccc3)(c3ccccc3)O2)C(OC(C)=O)C(OC(C)=O)C1OC(C)=O (centres undefined) | inactive |
| O=C1c2[nH]cc(CN3CCN(CCO)CC3)c2C(=O)c2c1c(O)c1ccccc1c2O | inactive |

---

# System: HOP-62 NSCLC
# protocol summary: NCI tumour cell line growth inhibition, 48 h
Where a SMILES comes first, the peptide text is derived from it. [ ]: non-standard residue; d: D form. Ac5c = NC1(C(=O)O)CCCC1

| compound | TGI |
| --- | --- |
| CC(C)(C)c1cc2c(O)c(c1)C(c1ccccc1)c1cc(C(C)(C)C)cc(c1O)Cc1cc(C(C)(C)C)cc(c1O)C(c1ccccc1)c1cc(C(C)(C)C)cc(c1O)C2 (stereo unspecified) | > 100 µM |
| O=c1[nH]c2cc(Cl)ccc2nc1/C(=N/Nc1ccccc1)C(O)c1ccco1 (stereo unspecified) | > 100 µM |
| CC1(C)C[C@H]2[C@H](O)C(CO)=C3C(=O)[C@@H](O)[C@]3(C)[C@H]2C1 | > 100 µM |
| CC1CN=C(N(C)C(=O)Nc2ccc(Cl)cc2)S1 (stereo unspecified) | > 100 µM |
| Cc1nn(C(=O)Cc2ccccc2)c2c1C(c1ccc3ccccc3c1O)SC(N)=N2 (stereo unspecified) | > 100 µM |
| NC(=O)c1ncn2c1NCC1OC2C(O)C1O (stereo unspecified) | > 100 µM |
| O=C(CC1(O)C(=O)Nc2ccc([N+](=O)[O-])cc21)c1ccc2ccccc2c1 (stereo unspecified) | > 100 µM |
| C=CCCC(=O)N1CCC(C(=O)OCC)C1=O (stereo unspecified) | > 100 µM |
| COc1cc(-c2cc(/C=C3\C(=O)Nc4ccc(Cl)cc43)[nH]n2)cc(OC)c1OC | > 100 µM |
| Fc1cc(-c2cc(-c3ccccc3)n[nH]2)c(Cl)cc1Cl | > 100 µM |
| Cc1ccc(NC(=O)CC/C(CC(=O)C(C)(C)C)=N/Nc2nnc(C)n2N)cc1C | > 100 µM |
| Cc1cc(C)nc(NS(=O)(=O)c2ccc(NC(=O)c3cccc4c(Nc5ccc(S(=O)(=O)N=C(N)N)cc5)c5ccc(Cl)cc5nc34)cc2)n1 | > 100 µM |
| CN=c1oc2ccccc2cc1C(N)=O | > 100 µM |
| Cc1ccc(NC(=S)C#N)cc1Cl | > 100 µM |
| NCC(=O)NC1(C(=O)O)CCCC1 (H-Gly-[Ac5c]-OH) | > 100 µM |
| Cc1nn(-c2ccccc2)c(-n2ccnc2)c1/C=N/Nc1nc(-c2ccc(Cl)c(Cl)c2)cs1 | 29.7 µM |
| Cn1cnc([N+](=O)[O-])c1Sc1nc2ncccc2[nH]1 | > 100 µM |
| Oc1ccc(/C=C/c2ccc(O)cc2)cc1 | > 96.5 µM |
| Cc1cc([N+](=O)[O-])c(C)c2c1[nH]c1ccc(O)cc12 | > 100 µM |
| C=C(C)[C@@H]1CC[C@]2(COC(C)=O)CC[C@]3(C)[C@H](CC[C@@H]4[C@@]5(C)CCCN(C(C)=O)C(C)(C)[C@@H]5CC[C@]43C)[C@@H]12 | 3.16 µM |
| CN(CCO)C1CCN(c2ccc(Nc3ncc4c5ccnc(F)c5n(C5CCCC5)c4n3)nc2)CC1 | 25.4 µM |
| O=C1Nc2ccccc2S/C1=C\c1ccc(C(F)(F)F)cc1 | > 100 µM |
| Cc1ccc(Nc2nc3c(s2)C(=O)c2ccccc2C3=O)cc1 | 20 µM |
| CCOC(=O)c1c2c(n(Cc3ccc(Cl)cc3Cl)c1C)-c1nc(Cc3ccccc3)[nH]c1C(=O)C2=O | 5.48 µM |
| O=c1cc(NNc2ccc3ccccc3c2)[nH]c(=S)[nH]1 | 98.3 µM |
| CC1CCC(C(C)C2C(O)CC3C4CC=C5CC(O)CCC5(C)C4CCC32C)NC1 (stereo unspecified) | 66 µM |
| CNc1cc(N)ccc1C(=O)N1CCC[C@H]1CO | > 100 µM |
| CCCCCCCCCCCCC/C=C/[C@H]1[C@@H](C(=O)OC)N1S(=O)c1ccc(C)cc1 (stereo partly specified) | > 100 µM |
| CN1CCN(Cc2ccc(NC(=O)c3nc4ccc5[nH]ncc5c4c4c3CCCC4)cc2C(F)(F)F)CC1 | 1.92 µM |
| O=C(Cc1ccc(OCc2cccc(Cl)c2)cc1)NO | > 100 µM |
| COc1cc([C@@H]2c3cc4c(cc3[C@@H](NC(=O)c3cccc(N)c3)C3COC(=O)[C@@H]32)OCO4)cc(OC)c1O (stereo partly specified) | 0.0964 µM |

---

# Tested on: OVCAR-8 ovarian
# protocol summary: NCI tumour cell line growth inhibition, 48 h

| compound | TGI |
| --- | --- |
| O=[N+]([O-])c1ccc2nc3n(c2c1)C(c1c(F)cccc1F)SC3 (centres undefined) | > 10 µM |
| COc1ccc(C2CC(c3ccc4ccccc4c3O)=NN2)cc1OC (centres undefined) | > 100 µM |
| CCCCCCCCCCCCCCCCNC(=O)OC(C)C | 18 µM |
| O=CC(NC(=O)N(CCCl)N=O)C(O)C(O)C(O)CO (centres undefined) | > 1250 µM |

---

# System: U251 CNS
# protocol summary: NCI tumour cell line growth inhibition, 48 h
Each item that follows carries a reported TGI.

| compound | measured target | TGI |
| --- | --- | --- |
| Cc1ccc(-c2c(C#N)c(N)[nH]c(=S)c2C#N)cc1 | U251 CNS | > 100 µM |
| COc1ccc2c(c1)O[C@@H]1[C@@H](OC3OC(CO)C(O)C(O)C3O)Oc3cc(OC)c(OC)cc3[C@]1(O)C2=O (some centres undefined) | U251 CNS | > 100 µM |
| Cc1ccc(NC(=S)C#N)cc1Cl | U251 CNS | > 100 µM |
| O=[N+]([O-])c1cccc2nc3ccccc3c(NCCO)c12 | U251 CNS | 0.00518 µM |
| O=C(C(Br)C(Br)c1ccccc1)C(Br)C(Br)c1ccccc1 (centres undefined) | U251 CNS | 4.53 µM |
| C=C(C)[C@@H]1C/C=C(\COC(=O)[C@H](OC(C)=O)C(NC(=O)c2ccccc2)c2ccccc2)CC[C@H]2O[C@]2(C)CC/C=C(\C)CC1 (some centres undefined) | U251 CNS | > 50 µM |
| Cc1cc(O)c(C=NC(=S)C(N)=S)c(=O)o1 | U251 CNS | > 100 µM |
| C=C1C(=O)O[C@H]2[C@H]1CC/C(COC(=O)NCc1[nH]nc3ccccc13)=C\CC[C@@]1(C)O[C@@H]21 | U251 CNS | 13.7 µM |
| CCC(/C=C(C)/C=C/C(=O)c1c(O)c(-c2ccc(O)cc2)c[nH]c1=O)CO (centres undefined) | U251 CNS | 23.9 µM |
| COc1cccc(NC(=O)CC(=O)Nc2cccc(OC)c2)c1 | U251 CNS | > 100 µM |
| N#Cc1nc(-c2cccnc2)oc1N | U251 CNS | > 100 µM |
| CC(=O)OCC1OC(NC(=S)CCSc2nc3ccccc3c(=O)n2-c2ccccc2)C(OC(C)=O)C(OC(C)=O)C1OC(C)=O (centres undefined) | U251 CNS | > 100 µM |
| O=C(c1ccco1)N(Cc1cccnc1)C(=S)N(Cc1cccnc1)C(=O)c1ccco1 | U251 CNS | 31.4 µM |
| COC(=O)c1sc(=O)n(-c2ccccc2)c1SCc1ccccc1 | U251 CNS | > 100 µM |
